The reported numbers originate from ChEMBL document CHEMBL1201862.

tested on: M14; experiment: NCI tumour cell line growth inhibition, 48 h
Activity calls are given as the source filed them. Cut-off read from the data, not from the text of the source: active = GI50 up to about 1.1 µM and inactive = higher.
Answer each item with its documented GI50.

Completed entries (count: 5):
1. CCCN(CCC)CCc1cc(C(C)=O)n(S(=O)(=O)c2ccc(C)cc2)c1 | 20.3 µM (inactive)
2. CC(C)(C)N1C=[N+](C(C)(C)C)CC1 | > 100 µM (inactive)
3. C=C[C@H]1CN2CCc3c([nH]c4cc(O)ccc34)[C@@H]2C[C@@H]1C[C@H]1c2[nH]c3ccccc3c2CCN1C | 1.74 µM (inactive)
4. CN(C)c1cc[n+](-c2nc([N-]C(=O)C(F)(F)F)nc3c2ncn3C2CC(O)C(CO)O2)cc1 (centres undefined) | > 100 µM (inactive)
5. CCOC(=O)c1cc(=O)c2cccc3c2n1CCS3 | > 100 µM (inactive)

Items follow; give GI50 for each.
1. N#Cc1ccc(/N=N/N2CCCC2)cc1
2. CC(C)CCCC(C)[C@H]1CCC2[C@@H]3CCC4Cc5nc6c(nc5C[C@]4(C)C3CC[C@@]21C)CC1CC[C@@H]2C(C[C@@H](O)[C@@]3(C)C2C[C@@H]2OC4(CCC(C)CO4)C(C)[C@@H]23)[C@@]1(C)C6 (some centres undefined)
3. CC1=CC(=O)N2C(OC[C@@H]2c2ccccc2)O1 (some centres undefined)
4. CCc1c(C)c(C#N)c(=S)n(C2OC(COC(C)=O)C(OC(C)=O)C(OC(C)=O)C2OC(C)=O)c1-c1ccccc1 (centres undefined)

*A*
1. > 100 µM (inactive)
2. > 100 µM (inactive)
3. > 100 µM (inactive)
4. > 31.6 µM (inactive)

====

I'd appreciate it if you could supply GI50 values for the items below.
system: TK-10; assay: NCI tumour cell line growth inhibition, 48 h
The source made the active and inactive calls. Cut-off read from the data, not from the text of the source: active = GI50 up to about 1.1 µM and inactive = higher.

1) Nc1nncc2c1ccn2C1OC(CO)C(O)C1O (stereo not drawn) | > 100 µM (inactive)
2) Cc1ccccc1-n1c(N)c(-c2nc3ccccc3[nH]2)sc1=S | 39.3 µM (inactive)

Then there is this molecule:
*Q* # lookup: GI50 of CC(C)CCCC(C)[C@H]1CCC2[C@@H]3CCC4Cc5nc6c(nc5C[C@]4(C)C3CC[C@@]21C)CC1CC[C@@H]2C(C[C@@H](O)[C@@]3(C)C2C[C@@H]2OC4(CCC(C)CO4)C(C)[C@@H]23)[C@@]1(C)C6 (stereo partly drawn)
*A* > 100 µM (inactive)

====

system: CCRF-CEM; test: NCI tumour cell line growth inhibition, 48 h
Activity calls are given as the source filed them. Cut-off read from the data, not from the text of the source: active = GI50 up to about 1.1 µM and inactive = higher.
Please respond with reported GI50 for every item in the list.

Required: GI50, one value per compound below.
1. COc1ccc(Nc2nc3ccc(C(F)(F)F)cc3nc2C(=O)O)cc1
2. CC(C)(CCC(C)(C)N1OC1c1ccccc1)N1OC1c1ccccc1 (stereo not given)

*A*
1: 27 µM (inactive); 2: 9.31 µM (inactive)

Give GI50 for each of the items listed below.
1. COc1cc(COC(=O)N[C@H](C(=O)O)C(C)(C)C)c([N+](=O)[O-])cc1OC
2. CC1=NN(c2ccccc2)C(=O)C1=C1SCCCS1
3. CC(C)(CC#N)c1cc(CC(C)(C)c2cc(CC(C)(C)c3cc(C(C)(C)C4(C)OCCO4)no3)no2)no1

*A*
1. > 100 µM (inactive)
2. 11.7 µM (inactive)
3. 45.8 µM (inactive)

====

test system: LOX IMVI; assay: NCI tumour cell line growth inhibition, 48 h
Activity calls are given as the source filed them. Rule as the data show it: active = GI50 up to about 1.1 µM and inactive = higher.
measured_property: GI50

Batch lookup, GI50 per entry.
1. CC(=O)O[C@H]1CC[C@@]2(C)C(=CC[C@H]3[C@@H]4CC[C@H](c5cc(C(F)(F)F)n(C(C)=O)n5)[C@@]4(C)CC[C@@H]32)C1
2. N#CC(NNC(=O)Cc1ccccc1)c1cccc(O)c1 (stereo not given)
3. OCc1cc2ccncc2c2c1[nH]c1ccccc12

*A*
1: 7.4 µM (inactive); 2: > 100 µM (inactive); 3: 3.44 µM (inactive)

Provide GI50 for all items below, preserving their order.
1. Nc1ncnc2oc(-c3cccs3)nc12
2. COC1=CC(=O)c2c(O)c3c(c(O)c2C1=O)C[C@](C)(O)C[C@@H]3O

*A*
1: > 100 µM (inactive); 2: 2.54 µM (inactive)

====

Give GI50 for every item shown.
test system: HOP-92; test: NCI tumour cell line growth inhibition, 48 h
Calls of active or inactive are those of the source. No stated cut-off is given here; in the data, active = GI50 up to about 1.1 µM and inactive = higher.

1. C=C1C(=O)OC2C1C(OC(=O)/C(C)=C/C)CC1(C)C(=O)CCC(=C)C21 (stereo not given) | 1.62 µM (inactive)
2. Cc1c([N+](=O)[O-])oc2ccc3ccccc3c12 | > 100 µM (inactive)
3. CC1=C(C(=O)Nc2ccccc2)C(c2cccc3ccccc23)C(C(=O)Nc2ccccc2)=C(C)N1 | 24 µM (inactive)
4. COC(CC1(CCNc2ccccc2)C(=O)N(COCC[Si](C)(C)C)c2ccccc21)OC (stereo not given) | 13.8 µM (inactive)
5. CCCN(CCC)CCc1cc(C(C)=O)n(S(=O)(=O)c2ccc(C)cc2)c1 | > 100 µM (inactive)

Kindly give each listed record's GI50.
1. OCC1OC(n2cnc3c(Cl)nc(Nc4ccc(Cl)c(Cl)c4)nc32)CC1O (stereo not given)
2. CN(C)c1ccc(/C=c2/c3ccccc3n3c2cc(C24CC5CC(CC(C5)C2)C4)[n+]3C)cc1
3. COc1cc2c(cc1OC)C1C(O)C(OC)C=C3CC[N+](C)(C2)C31 (stereo not given)
4. Cc1cc(C)n(CN(Cn2nc(C)cc2C)c2ccccc2)n1

*A*
["8.18 µM (inactive)", "0.366 µM (active)", "> 100 µM (inactive)", "33.5 µM (inactive)"]

*Q* Need GI50 of CC(NC(=O)c1ccc(OP(=O)(OCc2ccc([N+](=O)[O-])o2)N(C)CCCCCl)cc1)c1ccc(OCC2CCCCC2)c(C(N)=O)c1 (stereo not given) , thanks.
*A* 1.19 µM (inactive)

====

test system: NCI-H226; assay: NCI tumour cell line growth inhibition, 48 h
Calls of active or inactive are those of the source. Rule as the data show it: active = GI50 up to about 1.1 µM and inactive = higher.
Log the outcome using a class from active, inactive

Below are worked cases with known answers.
1. O=C(NNC(=O)c1ccccc1O)c1cccs1 | inactive
2. Nc1ccc(S2(c3ccc(N)cc3)C=C(c3ccccc3)C(c3ccccc3)=C2)cc1 | inactive
3. CCOC(=O)NN(C(=O)OCC)C(=C(c1ccccc1)N1CCOCC1)N(NC(=O)OCC)C(=O)OCC | inactive
4. CC1C2C=C(O)C(=O)C(C2=O)C1c1ccccc1 (stereo not drawn) | inactive
5. COc1ccc(-c2c(-c3ccc(OC)cc3)n3c(=O)n(C)c(=O)n23)cc1 | inactive
6. COc1cc2c(c(O)c1OC)C(=O)C(Cc1ccc(O)cc1)CO2 (stereo not drawn) | inactive
7. COc1cccc2c(=O)oc(-c3ccccc3C)nc12 | inactive
8. O=[N+]([O-])c1ccc(C2=NOC(c3ccccc3)N2C23CC4CC(CC(C4)C2)C3)cc1 (stereo not drawn) | inactive
9. N#C/C(=C/Sc1ccccc1)C(=O)O | inactive
10. O=C(O)CCSC(=S)Nc1ccc([N+](=O)[O-])cc1 | inactive

*Q* Per the assay record, what outcome was assigned to `COc1ccccc1Cn1nc(OC)c2cc([N+](=O)[O-])ccc21` ?
*A* inactive

*Q* Which outcome did this test record for the compound `O=S(=O)(/N=C(\NO)Nc1ccc(Cl)cc1)c1ccc(-c2ccccn2)s1` ?
*A* inactive

*Q* Outcome logged for Nc1ncnc2c1ncn2C1OC(CO)C(O)C(O)C1O (stereo not drawn) in this assay:
*A* inactive

*Q* Field: outcome | Entry: `Cc1ccc(S(=O)(=O)N/N=C2/C(=O)Nc3c(Cl)cc(Cl)cc32)cc1`
*A* inactive

*Q* Returns: the outcome recorded for CC1=C(/C=C/Cl)CC(Cl)C(C)(Cl)C1 (stereo not drawn) in this assay.
*A* inactive

*Q* Please let me know the test result on file for `CCN(CC)CCSc1nc(-c2c[nH]c3nc(C)ccc3c2=O)n[nH]1` .
*A* inactive

*Q* Which result was noted for this compound in the test: COC1(O)C(=O)c2ccccc2OC1(OC)c1ccccc1 (stereo not drawn)
*A* inactive

*Q* Please let me know the test result on file for CCOC(=O)NC(C(=O)OCC)(N1CCN(c2cc3c(cc2F)c(=O)c(C(=O)O)cn3CC)CC1)C(F)(F)F (stereo not drawn) .
*A* inactive

*Q* Hey, what did the test say about `Cc1c([N+](=O)[O-])oc2ccc3ccccc3c12` ?
*A* inactive

*Q* Check the results log: what was the call for NNC(=S)N/N=C(\c1nc2ccc(Cl)cc2nc1O)C(O)c1ccc(Cl)cc1Cl (stereo not drawn) ?
*A* inactive

*Q* // param item: COc1cc(C2C(Cl)C(=O)N2NC(=O)c2ccc(NC(C)=O)cc2)ccc1O (stereo not drawn) ; yields the recorded call
*A* inactive

*Q* Please share the test call associated with `CN(C)c1ccc(/C=c2/c3ccccc3n3c2cc(C24CC5CC(CC(C5)C2)C4)[n+]3C)cc1` .
*A* active

*Q* # fetch the recorded call for CC(N)/C(N)=N/O (stereo not drawn) here
*A* inactive
